# SYSTEM_UNDER_TEST: T1, hiR1-FL-WT-T7 (human, UniProt Q96CC6 1-855)
# T1 construct: on MEF-DKO cells
# T1 sequence: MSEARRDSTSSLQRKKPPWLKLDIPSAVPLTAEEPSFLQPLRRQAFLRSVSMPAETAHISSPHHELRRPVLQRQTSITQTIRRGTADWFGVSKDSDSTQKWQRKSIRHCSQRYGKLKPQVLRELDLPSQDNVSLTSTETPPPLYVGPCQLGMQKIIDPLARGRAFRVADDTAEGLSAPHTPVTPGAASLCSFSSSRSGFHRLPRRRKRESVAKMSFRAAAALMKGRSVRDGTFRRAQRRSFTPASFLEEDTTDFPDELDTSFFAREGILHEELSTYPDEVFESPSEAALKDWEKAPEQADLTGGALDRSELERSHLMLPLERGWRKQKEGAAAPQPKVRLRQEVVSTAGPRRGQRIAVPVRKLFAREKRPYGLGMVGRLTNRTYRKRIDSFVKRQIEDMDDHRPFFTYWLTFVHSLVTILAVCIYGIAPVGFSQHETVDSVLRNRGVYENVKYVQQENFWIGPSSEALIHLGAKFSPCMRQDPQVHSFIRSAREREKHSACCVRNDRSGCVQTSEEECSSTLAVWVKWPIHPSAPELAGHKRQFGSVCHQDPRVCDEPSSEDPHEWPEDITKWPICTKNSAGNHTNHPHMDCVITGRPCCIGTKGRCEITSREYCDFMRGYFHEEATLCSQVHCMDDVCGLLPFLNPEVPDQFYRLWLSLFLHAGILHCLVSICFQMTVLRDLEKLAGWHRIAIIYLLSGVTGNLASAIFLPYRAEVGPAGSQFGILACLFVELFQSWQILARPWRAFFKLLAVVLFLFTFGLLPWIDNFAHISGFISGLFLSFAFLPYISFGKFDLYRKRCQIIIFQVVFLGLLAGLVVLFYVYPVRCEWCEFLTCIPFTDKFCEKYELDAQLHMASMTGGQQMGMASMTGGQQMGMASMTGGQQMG
# METHOD_DESCRIPTION: FACS, MEF-DKO cells, 3 µg/ml
METRIC: loss of binding vs wild type

Some solved entries appear below for comparison.
antibody 16 (antibody, V domains shown, mouse IgG, kappa light chain; also called clone #16; purified antibody 16) VH: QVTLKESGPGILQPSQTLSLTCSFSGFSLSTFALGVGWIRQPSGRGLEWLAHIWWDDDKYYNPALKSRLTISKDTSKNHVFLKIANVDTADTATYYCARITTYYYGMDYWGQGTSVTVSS VL: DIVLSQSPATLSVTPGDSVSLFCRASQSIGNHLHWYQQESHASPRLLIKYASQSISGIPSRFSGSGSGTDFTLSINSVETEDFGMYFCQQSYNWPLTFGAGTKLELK : ≥ 95%
antibody 44 (antibody, V domains shown, mouse IgG, kappa light chain; also called clone #44; purified antibody 44) VH: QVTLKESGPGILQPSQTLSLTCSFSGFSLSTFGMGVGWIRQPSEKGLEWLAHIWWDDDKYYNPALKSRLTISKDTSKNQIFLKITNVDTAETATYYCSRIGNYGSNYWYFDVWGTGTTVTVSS VL: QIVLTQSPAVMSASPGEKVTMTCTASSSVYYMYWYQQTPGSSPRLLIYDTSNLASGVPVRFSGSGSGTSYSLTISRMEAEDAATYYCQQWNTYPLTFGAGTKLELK : ≥ 95%
antibody 50 (antibody, V domains shown, mouse IgG, kappa light chain; also called clone #50; purified antibody 50) VH: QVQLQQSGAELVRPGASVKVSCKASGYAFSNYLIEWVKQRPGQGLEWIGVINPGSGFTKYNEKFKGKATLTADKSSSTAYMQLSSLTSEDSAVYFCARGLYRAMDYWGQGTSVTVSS VL: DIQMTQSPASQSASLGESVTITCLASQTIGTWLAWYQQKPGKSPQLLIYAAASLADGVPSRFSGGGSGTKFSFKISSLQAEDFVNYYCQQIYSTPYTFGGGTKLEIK : ≥ 95%
antibody 48 (antibody, V domains shown, mouse IgG, kappa light chain; also called clone #48; purified antibody 48) VH: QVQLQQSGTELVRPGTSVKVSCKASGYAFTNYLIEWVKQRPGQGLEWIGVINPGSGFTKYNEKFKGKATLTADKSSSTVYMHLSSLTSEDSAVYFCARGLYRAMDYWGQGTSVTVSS VL: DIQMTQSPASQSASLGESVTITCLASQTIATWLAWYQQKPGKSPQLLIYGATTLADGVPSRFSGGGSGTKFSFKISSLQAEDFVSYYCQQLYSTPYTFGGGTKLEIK : ≥ 60%

Proceed to the following item.
Provide loss of binding vs wild type value for the following binder: antibody 5 (antibody, V domains shown, mouse IgG, kappa light chain; also called clone #5; purified antibody 5) VH: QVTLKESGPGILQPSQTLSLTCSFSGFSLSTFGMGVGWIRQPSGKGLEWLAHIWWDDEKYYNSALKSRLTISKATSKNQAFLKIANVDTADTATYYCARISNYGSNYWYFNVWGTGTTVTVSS VL: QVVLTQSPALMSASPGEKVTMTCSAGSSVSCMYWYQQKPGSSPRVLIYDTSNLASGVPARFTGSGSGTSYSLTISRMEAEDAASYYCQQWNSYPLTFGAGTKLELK ≥ 95%
